The following variants are shown together with reported normalized RNA/DNA level with ligand (log10) values.
B1: library; a variant is named by its letters at N, in order (parent)
chain: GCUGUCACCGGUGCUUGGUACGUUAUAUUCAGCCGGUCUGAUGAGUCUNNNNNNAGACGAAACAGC

Variants of: B1
Measurement Description: normalized RNA/DNA level with ligand (relative to sTRSVctl = 100) (log10 (% of sTRSVctl)); HEK293T overexpressing SLC46A1; ligand concentration (+) RNA-Seq: 6 mM; higher = less ribozyme self-cleavage, higher mRNA level
Condition Notes: with (6R,S)-folinic acid; ligand present: yes
# output: bare number, no unit

UGCCUA
2.03
CUGUUU
2.06
GUUUCU
1.97
UUCACA
1.97
CGGUCG
2.04
GUUGAC
2.01
GAGUGG
2.01
CACAAU
1.99

### Prompt Query: normalized RNA/DNA level with ligand (log10); subject: `GUAAAU`
### Response 2

### Prompt Query: normalized RNA/DNA level with ligand (log10); subject: `AUCUUC`
### Response 2.05
